MAGL (Homo sapiens, UniProt Q99685) pIC50, compiled from various sources.
pIC50: −log10 of the molar value.
pIC50 vs 7: at or above is 1, below is -1.

COc1cccc(F)c1CC1CC2(C1)CN(C(=O)N1CC[C@@H]3OCC(=O)N[C@@H]3C1)C2	1
CC(=O)Nc1ccn(C(=O)N2CCC3(CCCN3Cc3ccc(Cl)c(C)c3)CC2)n1	1
O=C(c1cccc(-c2c[nH]nc2F)c1Cl)N1CCN2CC(c3ccc(OC(F)F)cc3)OC[C@@H]2C1 (mixture of isomers)	1
O=C1CO[C@H]2CCN(C(=O)N3CCC(C#Cc4ccc(Cl)cc4Cl)CC3)C[C@H]2N1	1
O=C(c1ccc2c(ccn2-c2ccc(C(F)(F)F)cn2)c1)N1CC(N2CCN(C(=O)c3nccs3)CC2)C1	1
O=C(c1ccc2c(c1)CCN2C(=O)C1CC1)N1CC(N2CCN(C(=O)c3nccs3)CC2)C1	-1
O=C(CCCc1cnn[nH]1)N1CC(c2ccc(N3CC(OCC(F)(F)F)C3)cc2)C1	-1

---

MAGL (Homo sapiens, UniProt Q99685) IC50, compiled from various sources.
value-kind: IC50

O=C(c1ccc2c(ccn2-c2cc(F)cc(F)c2)c1)N1CC(N2CCN(C(=O)c3nccs3)CC2)C1	< 5 nM
O=C(c1ccc2c(c1)[nH]c(=O)n2-c1ccc(F)cc1)N1CC(C2CCN(C(=O)c3nccs3)CC2)C1	34 nM
O=C1CO[C@H]2CCN(C(=O)N3CC(Oc4ccc(C(F)(F)F)c(N5CC6(CCC6)C5)c4)C3)C[C@H]2N1	6 nM
Cc1cccc(C(=O)N2CCN3C[C@@H](c4ccc(F)c(Cl)c4)OC[C@@H]3C2)c1C#N	121 nM
Cc1cc(C(=O)N2CCN(c3nc4nc(Cl)ccc4o3)CC2)cnc1OCC1CC1	90 nM
O=C(c1cccc(-c2c[nH]nc2F)c1Cl)N1CCN2C=C(c3ccc(C(F)(F)F)cn3)OC[C@@H]2C1	220 nM
O=C1N[C@H](CCC(=O)N2CC(c3ccc(N4CC5(CCCC5)C4)nc3)C2)CO1	13 nM
O=C(c1ccc2[nH]c(C3CCCCC3)nc2c1)N1CCN(C2CN(C(=O)c3nccs3)C2)CC1	3310 nM
COc1cccc(C(=O)N2CCN3C[C@@](O)(c4nc5ccccc5n4C)OC[C@@H]3C2)c1Cl	4030 nM
O=C(c1cscn1)N1CC[C@H](NC2CN(C(=O)c3cc4ccc(Br)cc4s3)C2)C1	1050 nM
O=C(c1ccc2c(-c3ccc(F)cc3)c[nH]c2c1)N1CC(N2CCN(C(=O)c3nccs3)CC2)C1	< 5 nM
COc1ccc(-c2nc([C@]3(O)CN4CCN(C(=O)c5cccc(OC)c5Cl)C[C@H]4CO3)cs2)cn1	1600 nM
Cc1nc2cc(C(=O)N3CC(N4CCN(C(=O)c5cscn5)CC4)C3)ccc2n1C1CCCCC1	4240 nM
CC(C)(C)Cn1nnc(-c2ccc(C(=O)N3CCN(c4nc5nc(Cl)ccc5o4)CC3)cc2F)n1	4 nM
COc1cccc(C(=O)N2CCN3C[C@@H](c4ccc(F)c(Cl)c4)OC[C@@H]3C2)c1F	85.6 nM

---

MAGL (Homo sapiens) IC50, compiled from various sources.
value-kind: IC50 (nM)

O=C(c1ccccc1)N1CCN(C2CN(C(=O)c3ccc(Oc4ccc(Cl)cn4)cc3)C2)CC1	2030
O=C(c1cccc(-c2c[nH]c(=O)o2)c1Cl)N1CCN2C[C@@](O)(c3ccc(Cl)c(Cl)c3)OC[C@@H]2C1	48.6
O=C1CO[C@H]2CCN(C(=O)N3CC(c4ccc(-c5ccc(Cl)cc5F)cc4)C3)C[C@H]2N1	0.2
O=C(c1cc(-c2ccccc2)cc(C(F)(F)F)c1)N1CC(N2CCN(C(=O)c3cscn3)CC2)C1	847
CC(C)(C)Cn1nncc1-c1ccc(C2CN(C(=O)N3CC[C@@H]4OCC(=O)N[C@@H]4C3)C2)cc1	0.9
COc1cc(C(c2ccccc2)C2CCN(C(=O)c3ccc4c(c3)NC(=O)CO4)CC2)ccn1 (single isomer, unassigned)	0.24

---

UniProtKB Q99685 IC50, compiled from various sources.
value-kind: IC50 (nM)

COc1cccc(C(=O)N2CCN3C[C@@H](c4cc(Cl)c(F)c(C#N)c4)OC[C@@H]3C2)c1Cl	146
N#Cc1cccc(Cl)c1C#CC1CN(C(=O)N2CC[C@@H]3OCC(=O)N[C@@H]3C2)C1	50
Cc1c(C(=O)N2CC(N[C@H]3CCN(C(=O)c4ccccc4)C3)C2)sc2ccc(-c3ccc(C(F)(F)F)cc3)cc12	16
O=C(c1ccc(-c2cccc(C(F)(F)F)c2)cc1)N1CC(N2CCN(C(=O)c3cnco3)CC2)C1	55
O=C1CO[C@H]2CCN(C(=O)N3CC(C#Cc4ccc(Cl)cc4C(F)(F)F)C3)C[C@H]2N1	3
Cc1cc(OC[C@@H]2CCN(C(=O)N3CC[C@@H]4OCC(=O)N[C@@H]4C3)C[C@@H]2C)cnc1C(F)(F)F	5

---

MAGL (Homo sapiens, UniProt Q99685) pIC50, compiled from various sources.
pIC50: −log10 of the molar value.
value-kind: pIC50

O=C(c1cccc(N2CCC[C@H](O)C2)c1Cl)N1CCN2C[C@@](O)(c3ccc(F)c(Cl)c3)CC[C@@H]2C1	7.38
O=C(c1ccc2c(c1)ncn2-c1ccc(C(F)(F)F)cc1)N1CC(C2CCN(C(=O)c3nccs3)CC2)C1	8.04
O=C1CO[C@H]2CCN(C(=O)N3CC(C#Cc4ccc(OC(F)(F)F)cc4)C3)C[C@H]2N1	8.05
O=C(CCOCCOCCNc1ccc([N+](=O)[O-])c2nonc12)NCCOc1cccc(C(c2ccccc2)C2CCN(C(=O)N3CC[C@@H]4OCC(=O)N[C@@H]4C3)CC2)c1 (stereo partly shown)	8.68
O=C(c1ccc(-c2ccccc2)cc1)N1CC(N2CCN(C(=O)c3c[nH]c4ccccc34)CC2)C1	5.03
COc1cccc(C(=O)N2CCN3C[C@@H](c4ccc(Br)cn4)OC[C@H]3C2)c1Cl (racemic)	6.01

---

MAGL (Homo sapiens, UniProt Q99685) IC50, compiled from various sources.
value-kind: IC50 (nM)

Cc1nc(-c2ccncc2)sc1C(=O)N1CC(N2CCN(C(=O)c3nccs3)CC2)C1	1610
O=C(c1ccc2c(c1)ncn2CCC(F)(F)F)N1CC(C2CCN(C(=O)c3nccs3)CC2)C1	280
O=C1CO[C@H]2CCN(C(=O)N3CCN(C(c4ccccc4)C(F)(F)F)CC3)C[C@H]2N1 (stereo partly drawn)	1100
O=C(c1ccc2c(c1)[nH]c(=O)n2C1CCC(F)(F)CC1)N1CC(N2CCN(C(=O)c3nccs3)CC2)C1	104
O=C(c1ccc2c(c1)[nH]c(=O)n2-c1ccccc1)N1CC(N2CCN(C(=O)c3nccs3)CC2)C1	191
O=C1CO[C@H]2CCN(C(=O)N3CC(c4nnc(-c5ccc(F)cc5F)[nH]4)C3)C[C@H]2N1	333
O=C(c1ccc(-c2ccc(Cl)c(Cl)c2)cc1)N1CC(N[C@H]2CCN(C(=O)c3ccccc3)C2)C1	7
CC(C)(C)Cn1cc(-c2ccc(C(=O)N3CCN(c4nc5nc(Cl)ccc5o4)CC3)cc2C(F)(F)F)nn1	4
O=C(c1cccc(-c2c[nH]nc2F)c1Cl)N1CCN2C[C@@H](c3cc(Cl)c[nH]c3=O)OC[C@@H]2C1	46.3
O=C1CO[C@H]2CCN(C(=O)N3CC(Oc4ccc(C(F)(F)F)cc4)C3)C[C@H]2N1	132
O=C(c1cc2ccc(C(F)(F)F)cc2s1)N1CC(N2CCN(c3ncccn3)CC2=O)C1	568

---

pIC50: −log10 of the molar value.
UniProt:Q99685 pIC50, compiled from various sources.
value-kind: pIC50

O=C1CO[C@H]2CCN(C(=O)N3CC(c4ccc(Oc5ccc(F)cc5F)cc4)C3)C[C@H]2N1	10.00
CS(=O)(=O)c1cc(Cl)ccc1-c1ccc(C2CN(C(=O)N3CC[C@@H]4OCC(=O)N[C@@H]4C3)C2)cc1	9.40
O=C1CO[C@H]2CCN(C(=O)N3CC4(CC(=CC5=C6C=CC=[N+]6[B-](F)(F)n6cccc65)C4)C3)C[C@H]2N1	7.36
N#Cc1ccc(N2CCC(C(=O)N3CC(N4CCN(C(=O)c5nccs5)CC4)C3)CC2)cc1	5.15
O=C(c1nccs1)N1CCN(C2CN(C(=O)c3cccc(-c4ccccc4)c3F)C2)CC1	7.20
O=C(c1ccc2nc(C(F)(F)F)cc(Cl)c2c1)N1CCN(C2CN(C(=O)c3cscn3)C2)CC1	5.05
O=C1CO[C@H]2CCN(C(=O)N3CC(c4ccc(-c5ccnn5CCF)cc4)C3)C[C@H]2N1	8.17
CC(C)(C)Cn1cc(-c2ccc(C(=O)N3CCN(c4nc5nc(F)ccc5o4)CC3)cc2)nn1	7.35
O=C(c1ccc2nn(CCc3ccc(F)cc3)cc2c1)N1CC(N2CCN(C(=O)c3nccs3)CC2)C1	7.62
Cc1ccnc(Oc2ccc(C3CN(C(=O)N4CC[C@@H]5OCC(=O)N[C@@H]5C4)C3)cc2)n1	7.62
CS(=O)(=O)c1ccc(C(c2ccccc2)C2CCN(C(=O)c3ccc4c(c3)NC(=O)CO4)CC2)cc1 (single isomer, unassigned)	9.57
O=C(c1ccc2c(-c3ccc(C(F)(F)F)cc3)c[nH]c2c1)N1CC(N[C@H]2CCN(C(=O)c3ccccc3)C2)C1	7.36
COc1cccc(C(=O)N2CCN3C[C@@](O)(CC(C)C)CC[C@@H]3C2)c1Cl (racemic)	6.20
O=C1CO[C@H]2CCN(C(=O)N3CCC(Oc4ccc(Cl)c(-c5ccc(Cl)cc5)c4F)CC3)C[C@H]2N1	8.52
COc1cccc(C(=O)N2CCN3C[C@@](O)(c4ccccc4Cl)OC[C@@H]3C2)c1Cl	6.26
Cc1cc(C2CCN(C(=O)N3CC[C@@H]4OCC(=O)N[C@@H]4C3)CC2)cnc1C(F)(F)F	6.66
Cc1c(C(=O)N2CCN(C3CN(C(=O)c4cncs4)C3)CC2)sc2cc(C(F)(F)F)ccc12	6.66
O=C(c1ccccc1)N1CCN(C2CN(C(=O)c3ccc4c(cnn4-c4ccc(F)c(F)c4)c3)C2)CC1	6.73
O=C1N[C@H](COC(=O)N2CC(c3ccc(C4(C(F)(F)F)CC4)cc3)C2)CO1	8.30
Cc1cc(C(=O)N2CCN(c3nc4nc(Cl)ccc4o3)CC2)ccc1-c1cn(CC(C)(C)C)nn1	8.40
O=C(c1ccccc1)N1CCN(C2CN(C(=O)c3ccc(-c4ccccc4OC(F)(F)F)cc3)C2)CC1	6.67
CC(C)(C)OC(=O)NCCOCCC(=O)NCCOc1cccc(C(c2ccccc2)C2CCN(C(=O)N3CC[C@@H]4OCC(=O)N[C@@H]4C3)CC2)c1 (some centres unmarked)	8.70
Cc1ccc2oc(N3CCN(C(=O)c4cnc(-c5nnn(CC(C)(C)C)n5)c(C)c4)CC3)nc2n1	7.29
